Target: RaaR (RSp0912) (Ralstonia pseudosolanacearum)
Sequence (Q8XRE2 1-313 limits assumed): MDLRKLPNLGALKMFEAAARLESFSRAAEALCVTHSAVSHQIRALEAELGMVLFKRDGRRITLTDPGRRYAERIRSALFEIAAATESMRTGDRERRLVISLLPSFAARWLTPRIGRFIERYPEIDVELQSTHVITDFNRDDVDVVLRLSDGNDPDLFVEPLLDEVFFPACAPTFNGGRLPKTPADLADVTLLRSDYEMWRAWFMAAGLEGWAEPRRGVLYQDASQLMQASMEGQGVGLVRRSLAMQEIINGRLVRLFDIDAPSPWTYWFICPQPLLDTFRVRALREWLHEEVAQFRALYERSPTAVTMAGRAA
Assay: biochemical
READOUT LABEL: Kd (µM)
Numeric only. Scale: µM

Ask: Provide only the value of recorded Kd for Nc1ccccc1C(=O)O
Reply: 3.63
